Biological target: Nitric oxide synthase, inducible (Mus musculus, UniProt P29477)
Sequence (P29477 whole entry): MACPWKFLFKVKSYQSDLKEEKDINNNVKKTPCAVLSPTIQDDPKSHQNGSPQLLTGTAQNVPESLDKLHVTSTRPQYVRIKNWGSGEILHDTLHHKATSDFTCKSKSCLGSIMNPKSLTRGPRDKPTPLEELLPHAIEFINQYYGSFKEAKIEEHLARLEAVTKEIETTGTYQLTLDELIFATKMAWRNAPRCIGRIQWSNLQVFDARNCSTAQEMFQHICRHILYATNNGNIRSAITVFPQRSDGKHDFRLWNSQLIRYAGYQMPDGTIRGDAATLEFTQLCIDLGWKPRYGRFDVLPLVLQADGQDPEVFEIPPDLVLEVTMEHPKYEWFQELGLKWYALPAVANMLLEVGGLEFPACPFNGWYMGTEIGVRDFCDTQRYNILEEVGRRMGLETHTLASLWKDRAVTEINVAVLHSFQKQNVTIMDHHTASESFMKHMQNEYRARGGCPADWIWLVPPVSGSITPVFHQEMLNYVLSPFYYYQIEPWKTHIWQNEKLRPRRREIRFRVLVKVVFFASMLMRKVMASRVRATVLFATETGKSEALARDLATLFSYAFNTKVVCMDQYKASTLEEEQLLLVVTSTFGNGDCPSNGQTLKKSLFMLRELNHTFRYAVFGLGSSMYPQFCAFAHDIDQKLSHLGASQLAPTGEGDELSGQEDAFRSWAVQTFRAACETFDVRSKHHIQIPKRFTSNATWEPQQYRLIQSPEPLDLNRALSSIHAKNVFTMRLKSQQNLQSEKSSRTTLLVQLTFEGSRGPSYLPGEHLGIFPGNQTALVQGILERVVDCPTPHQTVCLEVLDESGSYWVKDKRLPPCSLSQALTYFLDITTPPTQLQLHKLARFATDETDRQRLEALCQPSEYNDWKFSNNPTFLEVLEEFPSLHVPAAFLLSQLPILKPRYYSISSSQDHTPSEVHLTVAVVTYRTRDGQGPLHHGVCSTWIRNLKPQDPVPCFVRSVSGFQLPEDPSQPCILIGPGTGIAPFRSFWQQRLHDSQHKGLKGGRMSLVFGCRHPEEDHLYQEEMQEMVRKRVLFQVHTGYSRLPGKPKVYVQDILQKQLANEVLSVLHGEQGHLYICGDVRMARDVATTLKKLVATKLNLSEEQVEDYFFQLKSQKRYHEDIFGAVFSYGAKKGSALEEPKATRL
Assay: Inhibition of mouse recombinant iNOS expressed in Escherichia coli assessed as conversion of [gamma-14C]L-arginine to [14C]L-citrulline by radioactive assay
Parameter measured: pIC50
Quick note: pIC50 values are minus log10 of concentrations in mol/L.

Sample answers from the record:
[[record]]
compound = "CC1=CC2=NCC(C(=O)c3ccc(-c4ccc(Br)cc4)cc3)CN2C=C1.[O-][Cl+3]([O-])([O-])O (configuration not stated)"
parameter_measured = "pIC50"
observed = 4.55

[[record]]
compound = "COc1ccc(-c2ccc(C(=O)C3CN=C4C=C(C)C=CN4C3)cc2)cc1.Cl (configuration not stated)"
parameter_measured = "pIC50"
observed = 4.74

[[record]]
compound = "CC1=CC2=NCC(C(=O)c3ccc(-c4ccc(C#N)cc4)cc3)CN2C=C1.Cl (configuration not stated)"
parameter_measured = "pIC50"
observed = 4.30

[[record]]
compound = "CC1=CC2=NCC(C(=O)c3ccc(-c4ccc(Br)cc4)cc3)CN2C(C)=C1 (configuration not stated)"
parameter_measured = "pIC50"
observed = 3.92

[[record]]
compound = "O=[N+]([O-])c1cccc2cn[nH]c12"
parameter_measured = "pIC50"
observed = 4.40


Requested read-out: pIC50. Entry: CC1=CC2=NCC(C(=O)c3ccc4cc(C)ccc4c3)CN2C(C)=C1.[O-][Cl+3]([O-])([O-])O (configuration not stated)
4.46

Quick check: pIC50 of CC1=CC2=NCC(C(=O)c3ccc4cc(C)ccc4c3)CN2C=C1.[O-][Cl+3]([O-])([O-])O (configuration not stated) ?
4.54
